Test system: NCI-H226 lung
TEST_PROTOCOL: NCI tumour cell line growth inhibition, 48 h
READOUT_NAME: TGI

# count of solved cases: 5
O=C(Nc1cc(Cl)c(Cl)cc1Cl)C(=O)C1C=CCS1(=O)=O (configuration not stated)	> 100 µM
O=C1C(=O)c2c(oc(=O)c3ccccc23)-c2ccccc21	> 25 µM
COc1ccccc1N1C(=O)/C(=C/c2ccc(N(CCC#N)CCC#N)cc2C)N=C1c1cc([N+](=O)[O-])ccc1Cl	> 100 µM
O=C1NC(=O)C(Cc2ccccc2)(c2cccnc2)N1 (configuration not stated)	> 100 µM
CCOC(=O)C(Cc1c[nH]c2ccc(N)cc12)(NC(C)=O)C(=O)OCC	> 1000 µM

Each compound below has a reported value. Please supply its TGI.
1. Cc1ccccc1NC(=O)N/C(N)=N/c1nc(-c2cccc([N+](=O)[O-])c2)cs1
2. O=C1CC(NC(=O)C(F)(F)F)c2c1csc2Br (configuration not stated)
3. CC(C)=CCCC(C)c1ccc(C)c2c1OCN(CC1CCNCC1)C2 (configuration not stated)
4. COCC(N=CN1CCCc2ccccc2[C@@H]1CCCCl)C(C)(C)C (some centres not stated)
5. COc1ccc2cc(CNCCCCCCCCCCCCNCc3ccc4cc(OC)ccc4c3)ccc2c1
6. COc1cc(/C=C/C(=O)CC(=O)/C=C/c2cc(OC)c(OC)c(OC)c2)cc(OC)c1OC

a:
1: 7.02 µM; 2: > 100 µM; 3: 33.8 µM; 4: 23.9 µM; 5: 32.5 µM; 6: > 100 µM

----------
Hi there, I'd appreciate the recorded TGI for every entry that follows.
Test system: MOLT-4 leukemia
TEST_PROTOCOL: NCI tumour cell line growth inhibition, 48 h

COc1ccc2cc(CNCCCCCCCCCCCCNCc3ccc4cc(OC)ccc4c3)ccc2c1	> 58.9 µM

Each molecule below has a reported value. Please supply its TGI.
1. CCN(CC)C(=C(C(Cl)=C(Cl)Cl)[N+](=O)[O-])N(CC)CC
2. CN1CCC2(CC1)SC[C@H]1C(=O)N(c3ccc(Cl)cc3)C(=O)N12
3. CSc1ccc(C2=NN(C(=O)c3ccc(F)cc3)C(c3ccc(F)cc3)C2)cc1 (stereo not given)
4. Cc1ccccc1NC(=O)N/C(N)=N/c1nc(-c2cccc([N+](=O)[O-])c2)cs1

a:
> 100 µM
> 100 µM
38.2 µM
> 100 µM

----------
Heads up, these molecules all have GI50 values measured for NCI-H460 lung.

Each molecule below has a reported value. Please supply its GI50.
1. O=C(O[C@H]1CN[C@H](C#Cc2cc3ncnc(Nc4ccc5c(ccn5Cc5cc(F)ccc5F)c4)c3s2)C1)N1CCOCC1
2. O=[N+]([O-])c1cc(Cl)c(Cl)c([N+](=O)[O-])c1Cl
3. O=c1c2cc(Cl)ccc2oc2ccc(OCCCCCN3CCCCC3)cc12

a:
1. 5.17 µM
2. 3.3 µM
3. 1.73 µM

----------
Tested on: CCRF-CEM leukemia
TEST_PROTOCOL: NCI tumour cell line growth inhibition, 48 h
Hi there, I'd appreciate the recorded TGI for every entry that follows.

# count of solved cases: 10
CCN(CC)c1cc2c3c(c1)CCCN3CCC2	> 10 µM
O=S(=O)(N/N=C/c1ccc(/C=N/NS(=O)(=O)c2ccccc2)cc1)c1ccccc1	90.2 µM
O=C(Nc1cccc2ccccc12)Nn1cnnc1	> 100 µM
CCN(CC)CSc1nc2ccccc2o1	> 100 µM
O=c1ccn(C2OC(CO)C(O)C2F)c(=O)[nH]1 (centres undefined)	> 1000 µM
O=C1C(=O)c2c(oc(=O)c3ccccc23)-c2ccccc21	> 25 µM
CC(O)c1cccc(NCc2c3ccccc3c(=O)n3c2oc2ccccc23)c1 (centres undefined)	> 100 µM
Cc1ccc2nc(CN3CCCC(O)C3)cc(=O)n2c1 (centres undefined)	> 100 µM
O=C1c2cccc3cc([N+](=O)[O-])cc(c23)C(=O)N1CCCN1CCN(CCCNc2ccc3ncn4c5ccccc5c(=O)c2c34)CC1	5 µM
O=C(O[C@H]1CN[C@H](C#Cc2cc3ncnc(Nc4ccc5c(ccn5Cc5cc(F)ccc5F)c4)c3s2)C1)N1CCOCC1	24.9 µM

Each compound below has a reported value. Please supply its TGI.
1. CC(C)=CCC[C@@H](C)C1=C(O)C(O)C(C)=C2N=C(c3ccccc3)C(=O)OC21 (some centres undefined)
2. O=C(N/N=C/c1ccc2c(c1)OCO2)Nc1ccccc1Cl
3. COC(=O)c1c(O)ccc2c1c1c(n2Cc2ccccc2)C(=O)c2ccccc2C1=O
4. O=c1[nH]n(Cc2ccccc2Cl)c2ccc([N+](=O)[O-])cc12
5. COC(=O)Nc1nc2ccc(S(=O)(=O)NC(CC(C)C)C(=O)OC)cc2[nH]1 (centres undefined)

a:
["> 5.47 µM", "> 100 µM", "46.8 µM", "> 100 µM", "> 100 µM"]

Each compound below has a reported value. Please supply its TGI.
1. CCC(Sc1cc(Cl)c(C)cc1S(=O)(=O)Nc1nc(N)nc(N(C)C)n1)C(=O)O (centres undefined)
2. COC(=O)c1cc2c(cc1Cl)SC(N(N(C)C)S(=O)(=O)c1ccc(Br)s1)=NS2(=O)=O
3. CCN(CC)CCC(=O)NC1c2ccc(Cl)cc2Oc2c(C)cccc21 (centres undefined)
4. Ic1ncnc2c1ncn2C1CCCO1 (centres undefined)

a:
> 10 µM
72.5 µM
37 µM
> 100 µM
